# Tested on: Trypanosoma cruzi
# ASSAY NOTES: DNDI: Chagas in Vitro
# Format: functional, Tulahuen C4 (LacZ)
# REPORTED CONDITIONS: Trypanosoma cruzi, Tulahuen C4 (LacZ)
QUANTITY KIND: IC90 (nM)

INPUT SMILES	VALUE
N#Cc1cc(C(F)(F)F)ccc1N1CCC(N(c2ccc(C(F)(F)F)cc2)c2cccnc2)CC1	11

I: CN(C)S(=O)(=O)c1cccc(N2CCC(N(c3ccc(C(F)(F)F)cc3)c3cccnc3)CC2)c1
II: O=C(c1c(F)cccc1F)N1CCC(N(c2ccc(C(F)(F)F)cc2)c2cccnc2)CC1
Input line: Sort I and II by IC90 descending and give the first. The response must carry the label of the picked entry.
Output line: I
(I: 31 nM, II: 9 nM)

---

# ASSAY NOTES: in vitro
# REPORTED CONDITIONS: mouse, microsomes
QUANTITY KIND: half-life (h)
Write the value in h as a bare number.

Noted for FC(F)(F)c1ccc(N(c2cccnc2)C2CCN(c3ccc(C(F)(F)F)cn3)CC2)cc1 : its half-life reads 1.17

---

# ASSAY NOTES: in vitro
# REPORTED CONDITIONS: human, microsomes, t (1 / 2)
QUANTITY KIND: half-life (min)
Write the value in min as a bare number.

Noted for CC(O)C(C)N1CCC(N(c2ccc(C(F)(F)F)cc2)c2cccnc2)CC1 (configuration not stated) : its half-life reads 72.9

Noted for CC(C)C(O)CN1CCC(N(c2ccc(C(F)(F)F)cc2)c2cccnc2)CC1 (configuration not stated) : its half-life reads 29.8

Noted for COc1ccc(CN2CCC(N(c3ccc(C(F)(F)F)cc3)c3cccnc3)CC2)cc1 : its half-life reads 31

Noted for Cc1ccccc1CN1CCC(N(c2ccc(C(F)(F)F)cc2)c2cccnc2)CC1 : its half-life reads 14.1

Noted for CCC(C(C)=O)N1CCC(N(c2ccc(C(F)(F)F)cc2)c2cccnc2)CC1 (configuration not stated) : its half-life reads 11.1

Noted for FC(F)(F)c1ccc(N(c2cccnc2)C2CCN(C(c3ccccc3)C(F)(F)F)CC2)cc1 (configuration not stated) : its half-life reads 62.6

Noted for FC(F)(F)c1ccc(N(c2cccnc2)C2CCN(Cc3ccccc3C(F)(F)F)CC2)cc1 : its half-life reads 18.7

Noted for FC(F)(F)c1ccc(N(c2cccnc2)C2CCN(Cc3cccc(C(F)(F)F)c3)CC2)cc1 : its half-life reads 26

Noted for CC(C)(O)CN1CCC(N(c2ccc(C#N)cc2)c2cccnc2)CC1 : its half-life reads 142

Noted for CC(=O)C(C)N1CCC(N(c2ccc(C(F)(F)F)cc2)c2cccnc2)CC1 (configuration not stated) : its half-life reads 21.5

Noted for CC(C)(F)CN1CCC(N(c2ccc(C(F)(F)F)cc2)c2cccnc2)CC1 : its half-life reads 12.6

Noted for CCC(C(C)O)N1CCC(N(c2ccc(C(F)(F)F)cc2)c2cccnc2)CC1 (configuration not stated) : its half-life reads 35.8

---

# Tested on: Leishmania donovani
# ASSAY NOTES: DNDI: Inhibition of formation of Leishmania donovani
# Assay type: functional, MHOM/ET/67/L82
# Design: concentration or dose not given beside the values
The entries below are paired with their reported % inhibition.
Write the value in % as a bare number.

INPUT SMILES	QUANTITY KIND	VALUE
N#Cc1ccccc1N1CCC(N(c2ccc(C(F)(F)F)cc2)c2cccnc2)CC1	% inhibition	60.9

Noted for N#Cc1ccc(N2CCC(N(c3ccc(C(F)(F)F)cc3)c3cccnc3)CC2)cc1 : its % inhibition reads 51.5

Noted for CC(C)(C)CC(=O)N1CCC(N(c2ccc(Cl)cc2)c2cccnc2)CC1 : its % inhibition reads 42.9
